- test_system: Cytochrome P450 2C19 (Homo sapiens, UniProt P33261)
- Sequence (P33261 whole entry): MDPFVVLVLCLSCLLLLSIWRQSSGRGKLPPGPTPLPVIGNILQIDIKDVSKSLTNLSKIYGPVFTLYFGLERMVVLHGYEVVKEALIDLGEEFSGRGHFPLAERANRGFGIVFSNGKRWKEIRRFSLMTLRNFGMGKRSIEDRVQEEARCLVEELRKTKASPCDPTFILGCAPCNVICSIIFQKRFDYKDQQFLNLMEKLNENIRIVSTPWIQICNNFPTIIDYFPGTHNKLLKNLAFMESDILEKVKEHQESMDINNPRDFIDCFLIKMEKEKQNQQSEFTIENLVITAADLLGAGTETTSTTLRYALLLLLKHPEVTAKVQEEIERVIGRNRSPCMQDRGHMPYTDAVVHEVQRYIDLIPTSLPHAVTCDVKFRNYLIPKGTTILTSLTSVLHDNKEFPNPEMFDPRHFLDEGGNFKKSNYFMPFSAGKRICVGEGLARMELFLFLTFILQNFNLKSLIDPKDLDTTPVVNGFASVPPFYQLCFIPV
- assay_notes: Inhibition of human recombinant CYP2C19
- Assay type: ADME
assay_endpoint: IC50

# input For the molecule shown here, `NC(=O)c1ccc(Cc2ccccc2)cc1-c1cccc(CCC(=O)O)c1` , give the reported IC50.
# output > 20 µM

====

- assay_notes: Apparent permeability from apical to basolateral side in human Caco2 cells at pH 6.5
- Format: ADME, cell-based
- test_conditions: caco-2, pH 6.5
assay_endpoint: Papp (×10⁻⁶ cm/s)
The reply should be a number in ×10⁻⁶ cm/s, with the unit left off.

# input For `NC(=O)c1ccc(Cc2ccccc2)cc1-c1cccc(CCC(=O)O)c1` , what is its reported Papp?
# output 40.1

====

- test_system: Cytochrome P450 1A2 (Homo sapiens, UniProt P05177)
- Sequence (P05177 whole entry): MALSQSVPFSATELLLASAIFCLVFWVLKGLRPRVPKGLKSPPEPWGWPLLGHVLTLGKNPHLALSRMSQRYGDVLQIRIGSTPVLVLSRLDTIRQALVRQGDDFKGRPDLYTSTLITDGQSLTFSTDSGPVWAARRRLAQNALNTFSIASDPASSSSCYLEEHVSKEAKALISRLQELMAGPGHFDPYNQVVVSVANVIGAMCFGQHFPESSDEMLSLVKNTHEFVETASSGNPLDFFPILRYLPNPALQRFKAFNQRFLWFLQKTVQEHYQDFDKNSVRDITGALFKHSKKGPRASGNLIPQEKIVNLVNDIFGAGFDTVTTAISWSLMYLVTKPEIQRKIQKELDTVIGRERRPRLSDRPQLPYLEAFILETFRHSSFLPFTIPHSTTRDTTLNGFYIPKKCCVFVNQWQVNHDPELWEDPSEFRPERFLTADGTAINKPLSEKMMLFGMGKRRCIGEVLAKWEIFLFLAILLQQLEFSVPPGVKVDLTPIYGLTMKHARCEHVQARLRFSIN
- assay_notes: Inhibition of human recombinant CYP1A2
assay_endpoint: IC50

# input Value lookup for IC50; key = `NC(=O)c1ccc(Cc2ccccc2)cc1-c1cccc(CCC(=O)O)c1`
# output > 20 µM

====

- test_system: Voltage-dependent L-type calcium channel subunit alpha-1C (Homo sapiens)
- Sequence (Q13936 whole entry): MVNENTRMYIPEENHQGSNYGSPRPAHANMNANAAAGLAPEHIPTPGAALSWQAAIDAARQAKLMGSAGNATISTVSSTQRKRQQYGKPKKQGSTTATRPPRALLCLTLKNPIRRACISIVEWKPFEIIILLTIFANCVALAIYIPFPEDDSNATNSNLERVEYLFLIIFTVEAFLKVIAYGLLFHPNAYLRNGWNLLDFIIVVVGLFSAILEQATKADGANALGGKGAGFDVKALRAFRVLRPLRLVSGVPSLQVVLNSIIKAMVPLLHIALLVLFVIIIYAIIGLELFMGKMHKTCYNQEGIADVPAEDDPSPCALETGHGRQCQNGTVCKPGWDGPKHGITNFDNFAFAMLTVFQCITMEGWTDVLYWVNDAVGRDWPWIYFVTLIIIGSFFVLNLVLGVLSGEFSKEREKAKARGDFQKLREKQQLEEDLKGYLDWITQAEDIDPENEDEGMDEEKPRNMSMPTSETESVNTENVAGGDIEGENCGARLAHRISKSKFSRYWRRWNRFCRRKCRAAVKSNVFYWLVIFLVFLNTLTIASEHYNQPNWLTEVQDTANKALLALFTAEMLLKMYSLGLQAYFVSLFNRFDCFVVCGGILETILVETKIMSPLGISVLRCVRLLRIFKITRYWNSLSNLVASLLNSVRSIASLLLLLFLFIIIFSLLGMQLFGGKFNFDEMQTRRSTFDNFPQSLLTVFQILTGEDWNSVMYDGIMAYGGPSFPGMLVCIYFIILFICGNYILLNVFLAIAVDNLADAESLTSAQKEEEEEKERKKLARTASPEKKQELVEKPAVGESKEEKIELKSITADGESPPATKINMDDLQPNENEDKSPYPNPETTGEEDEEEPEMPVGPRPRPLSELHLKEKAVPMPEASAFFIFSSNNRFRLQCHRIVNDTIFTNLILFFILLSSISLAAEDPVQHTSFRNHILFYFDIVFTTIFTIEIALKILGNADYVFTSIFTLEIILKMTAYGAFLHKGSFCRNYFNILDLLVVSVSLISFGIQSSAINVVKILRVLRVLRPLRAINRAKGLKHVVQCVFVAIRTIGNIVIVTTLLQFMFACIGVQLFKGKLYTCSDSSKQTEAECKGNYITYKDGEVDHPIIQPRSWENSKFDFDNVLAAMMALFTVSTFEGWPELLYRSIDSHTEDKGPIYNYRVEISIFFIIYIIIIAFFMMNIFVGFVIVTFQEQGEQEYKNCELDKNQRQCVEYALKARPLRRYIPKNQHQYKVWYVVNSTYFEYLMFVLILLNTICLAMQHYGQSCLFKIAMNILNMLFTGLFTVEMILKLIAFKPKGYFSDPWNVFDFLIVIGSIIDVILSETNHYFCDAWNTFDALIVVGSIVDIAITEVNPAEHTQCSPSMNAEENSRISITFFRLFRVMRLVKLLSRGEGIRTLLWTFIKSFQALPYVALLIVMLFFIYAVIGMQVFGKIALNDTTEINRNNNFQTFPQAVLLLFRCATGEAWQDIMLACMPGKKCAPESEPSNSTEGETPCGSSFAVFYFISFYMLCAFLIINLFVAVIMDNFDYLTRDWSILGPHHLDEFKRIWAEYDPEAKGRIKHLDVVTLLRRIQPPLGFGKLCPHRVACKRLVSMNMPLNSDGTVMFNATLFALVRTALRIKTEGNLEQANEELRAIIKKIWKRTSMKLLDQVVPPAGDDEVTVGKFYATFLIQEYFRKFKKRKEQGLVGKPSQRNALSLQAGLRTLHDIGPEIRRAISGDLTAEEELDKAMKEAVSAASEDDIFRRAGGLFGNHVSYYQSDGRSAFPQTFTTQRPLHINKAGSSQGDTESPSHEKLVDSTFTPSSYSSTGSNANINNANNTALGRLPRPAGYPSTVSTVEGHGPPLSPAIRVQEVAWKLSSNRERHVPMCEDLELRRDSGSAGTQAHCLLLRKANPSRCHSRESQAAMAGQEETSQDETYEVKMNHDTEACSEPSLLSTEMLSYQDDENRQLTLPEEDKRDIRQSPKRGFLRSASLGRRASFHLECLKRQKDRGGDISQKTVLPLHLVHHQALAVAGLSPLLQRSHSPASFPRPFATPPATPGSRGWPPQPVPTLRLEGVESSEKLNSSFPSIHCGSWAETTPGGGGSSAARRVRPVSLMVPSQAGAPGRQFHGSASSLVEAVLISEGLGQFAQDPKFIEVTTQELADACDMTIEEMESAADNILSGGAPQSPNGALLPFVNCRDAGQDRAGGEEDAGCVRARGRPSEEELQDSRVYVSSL
- assay_notes: Inhibition of human Cav1.2 expressed in CHO cells by patch clamp assay
assay_endpoint: IC50

# input Returns the measured IC50 for the input molecule. Input: `NC(=O)c1ccc(Cc2ccccc2)cc1-c1cccc(CCC(=O)O)c1`
# output > 33.3 µM

====

- test_system: UniProt P10635
- Sequence (P10635 whole entry): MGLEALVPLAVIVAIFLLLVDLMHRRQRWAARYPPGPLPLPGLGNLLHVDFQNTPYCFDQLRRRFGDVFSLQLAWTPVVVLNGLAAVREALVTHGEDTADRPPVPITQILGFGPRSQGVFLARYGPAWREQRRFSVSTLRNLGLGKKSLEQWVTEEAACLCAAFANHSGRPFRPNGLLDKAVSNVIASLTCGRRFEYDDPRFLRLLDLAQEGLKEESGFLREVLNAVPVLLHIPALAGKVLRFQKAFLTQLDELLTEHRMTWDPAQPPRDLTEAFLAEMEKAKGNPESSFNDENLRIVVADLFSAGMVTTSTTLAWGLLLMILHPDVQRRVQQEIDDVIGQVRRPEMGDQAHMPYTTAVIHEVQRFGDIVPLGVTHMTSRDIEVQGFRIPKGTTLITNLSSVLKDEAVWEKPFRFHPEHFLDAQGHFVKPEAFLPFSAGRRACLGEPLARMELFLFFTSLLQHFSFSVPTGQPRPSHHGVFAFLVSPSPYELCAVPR
- assay_notes: Inhibition of human recombinant CYP2D6
assay_endpoint: IC50

# input What does the record list as IC50 for `NC(=O)c1ccc(Cc2ccccc2)cc1-c1cccc(CCC(=O)O)c1` ?
# output > 20 µM

====

- assay_notes: AUC (0 to infinity) in cynomolgus monkey at 15.8 umol/kg, po
- Assay type: ADME, Macaca fascicularis
- Design: dose 15.8 umol/kg, route oral, time infinity
- test_conditions: in vivo
assay_endpoint: AUC(0-inf) (µM·h)
# unit: µM·h | format: bare number

# input Entry under review: `C[C@H](Cc1cccc(-c2cc(Cc3ccccc3)ccc2C(N)=O)c1)C(=O)O` . Reported AUC(0-inf)?
# output 71.3

====

- test_system: Group 10 secretory phospholipase A2 (Homo sapiens, UniProt O15496)
- Sequence (O15496 whole entry): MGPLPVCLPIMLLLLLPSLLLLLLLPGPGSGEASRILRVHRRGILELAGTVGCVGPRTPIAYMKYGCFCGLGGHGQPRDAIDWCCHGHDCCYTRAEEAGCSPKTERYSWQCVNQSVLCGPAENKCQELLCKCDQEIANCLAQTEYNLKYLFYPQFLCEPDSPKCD
- assay_notes: Inhibition of recombinant sPLA2-10 (unknown origin) using 1-palmitoyl-2-oleoyl-sn-glycero-3-phosphocholine as substrate preincubated for 10 mins followed by substrate addition measured after 60 mins by colorimetric method
Each record is given Fulfilled if its reported IC50 is strictly below 4000 nM. Records at or above 4000 nM are given Not fulfilled.

Solved cases below.
CCC(Cc1cccc(-c2cc(Cc3ccccc3)ccc2C(N)=O)c1)C(=O)O (stereo unspecified)    Fulfilled
NC(=O)c1ccc(Cc2ccccc2)cc1-c1cccc(CCC(=O)O)c1    Fulfilled

# input Strictly below 4000 nM in IC50? `C[C@H](Cc1cccc(-c2cc(Cc3ccccc3)ccc2C(N)=O)c1)C(=O)O`
# output Fulfilled

====

- test_system: Cytochrome P450 2C9 (Homo sapiens)
- Sequence (P11712 whole entry): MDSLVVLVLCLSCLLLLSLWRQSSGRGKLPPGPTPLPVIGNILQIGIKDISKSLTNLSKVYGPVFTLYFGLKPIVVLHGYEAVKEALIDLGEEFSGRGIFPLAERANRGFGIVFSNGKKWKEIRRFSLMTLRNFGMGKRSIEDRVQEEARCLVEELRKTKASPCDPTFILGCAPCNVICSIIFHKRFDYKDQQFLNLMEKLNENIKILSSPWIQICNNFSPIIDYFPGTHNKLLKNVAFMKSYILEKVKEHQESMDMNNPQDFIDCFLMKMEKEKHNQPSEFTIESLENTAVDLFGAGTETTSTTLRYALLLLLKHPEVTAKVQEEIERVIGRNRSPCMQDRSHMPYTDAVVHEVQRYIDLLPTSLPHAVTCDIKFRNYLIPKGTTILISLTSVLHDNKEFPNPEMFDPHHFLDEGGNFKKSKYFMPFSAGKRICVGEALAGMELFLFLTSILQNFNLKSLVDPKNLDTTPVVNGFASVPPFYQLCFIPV
- assay_notes: Inhibition of human recombinant CYP2C9
assay_endpoint: IC50

# input Query (molecule): `NC(=O)c1ccc(Cc2ccccc2)cc1-c1cccc(CCC(=O)O)c1` ; field requested: IC50
# output > 20 µM

====

- test_system: Cytochrome P450 3A4 (Homo sapiens)
- Sequence (P08684 whole entry): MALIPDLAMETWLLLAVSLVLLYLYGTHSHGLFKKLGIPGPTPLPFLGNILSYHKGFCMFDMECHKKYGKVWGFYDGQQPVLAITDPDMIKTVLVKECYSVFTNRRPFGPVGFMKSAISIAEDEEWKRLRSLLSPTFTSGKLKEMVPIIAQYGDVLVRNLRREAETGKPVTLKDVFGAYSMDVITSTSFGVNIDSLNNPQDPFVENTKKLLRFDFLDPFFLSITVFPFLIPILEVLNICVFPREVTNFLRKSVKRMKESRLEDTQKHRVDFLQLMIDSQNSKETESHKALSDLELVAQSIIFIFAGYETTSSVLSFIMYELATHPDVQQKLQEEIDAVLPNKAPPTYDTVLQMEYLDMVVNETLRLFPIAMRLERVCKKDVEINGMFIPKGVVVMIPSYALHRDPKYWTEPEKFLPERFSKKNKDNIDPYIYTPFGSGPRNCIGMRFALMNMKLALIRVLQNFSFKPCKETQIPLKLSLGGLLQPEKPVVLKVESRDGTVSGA
- assay_notes: Inhibition of human recombinant CYP3A4
assay_endpoint: IC50

# input Give recorded IC50 with Cytochrome P450 3A4 (Homo sapiens) for the following compound: `NC(=O)c1ccc(Cc2ccccc2)cc1-c1cccc(CCC(=O)O)c1`
# output > 20 µM
